Attribution: the supplement of paper PMC10567573

measurementDescription: protein stability index of a GFP-peptide fusion (GPS, HEK-293T) (PSI 1-6); higher = more stable;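 also: 24-mer peptide tiles fused after GFP, lentivirally expressed, FACS-sorted into six equal bins by GFP/DsRed ratio, decoded by Illumina sequencing, PSI is the read-weighted mean bin number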
measurementSetup: treatment: DMSO; c terminus: a fixed tail appended
experimentalReadout: protein stability index

macromoleculeSequence: SVMYRKWKESKGKDREYTDIIRKQ [CDC34]
valueReported: 3.52

macromoleculeSequence: QRTVGQLMELCRLYHRADVEKVLR [EDARADD]
valueReported: 2.38

macromoleculeSequence: QENAIQTMELRNYFSLYCLHQETQ [SNX8]
valueReported: 2.58

macromoleculeSequence: LLSRINKDWLEGTVRGATGIFPLS [NCF4]
valueReported: 2.17

macromoleculeSequence: AYQQGVGYQMLGNVVTIGLAFFPF [PHTF1]
valueReported: 2.93

macromoleculeSequence: AIGVGQVDFNTLKSIGSEPHEDHV [MATN2]
valueReported: 4.67

macromoleculeSequence: VGSDDLERIEARLATLEGDDPSLR [PSD2]
valueReported: 5.32

macromoleculeSequence: SAGDADPENGEIKPASKPAGSSHT [ELOA2]
valueReported: 5.42

macromoleculeSequence: AILGEQRPRQRQRVYPKCTWLTTP [TCF25]
valueReported: 2.46

macromoleculeSequence: PFWEVLVRSTETVERDNMEEDNVE [HDAC6]
valueReported: 5.27

macromoleculeSequence: LSLYQLSLERGTALFAQVQRGALP [RSAD1]
valueReported: 2.23

macromoleculeSequence: QAYAHYLLATFPRRALAPPSAGFR [ANKRD9]
valueReported: 2.31

macromoleculeSequence: GFKHRLWVYSGRRGVHCWVCDESV [PRIM1]
valueReported: 2.81

macromoleculeSequence: AGKSGTSTPTTPGSTAITPGTPPS [MAP2]
valueReported: 5.11

macromoleculeSequence: KIIFRVGLVLLKHALGSPEKVKAC [TBC1D10A]
valueReported: 2.77

macromoleculeSequence: RKLRELQLRNCLRILMGELSNHHD [BEX3]
valueReported: 2.38

macromoleculeSequence: KSFSMAKGLNARMMRGLSYSLTTS [RAB40A]
valueReported: 2.35

macromoleculeSequence: GCANNLLVHHRAAHSNEILIFSVQ [KLHDC2]
valueReported: 2.49

macromoleculeSequence: ASLPSQKYPGPQAEGDSEGLSQGL [CHGA]
valueReported: 5.2

macromoleculeSequence: KKWQQYRSVRRERLKEMKLLRDQF [FAM9B]
valueReported: 2.59

macromoleculeSequence: CEEALCSNLSVENVADTLVLADLH [SPOPL]
valueReported: 4.52

macromoleculeSequence: FSDLQVYSYRRLGEEALSLQALDP [SLC22A15]
valueReported: 2.73

macromoleculeSequence: PEMYILKGGYKEFFPQHPNFCEPQ [CDC25B]
valueReported: 2.6

macromoleculeSequence: LALCPANHAPLREQGAIPRLVQLL [CTNNB1]
valueReported: 2.39

macromoleculeSequence: IYAMKILRKSDMLEKEQVAHIRAE [STK38L]
valueReported: 2.33

macromoleculeSequence: EDLLQQMLERRYTPYPNLYPDQSP [CLCN6]
valueReported: 3.28

macromoleculeSequence: FIYTAKLSLNMDNLQDTLEAASFL [KLHL13]
valueReported: 2.65

macromoleculeSequence: TERMDKVGDALEEVLSKALSQRTI [GADD45A]
valueReported: 3.83

macromoleculeSequence: RRNSEFEIFVDCDINREQLNDIFH [TPH1]
valueReported: 2.55

macromoleculeSequence: EIRRKEKEAVLAMEKKSKPKNSVW [RIT1]
valueReported: 4.12

macromoleculeSequence: TGEDVKVILKNSQGEEVAQRSTVF [LMNB1]
valueReported: 4.7

macromoleculeSequence: SGDFRSSTEDMERALSEYLAVFAR [P3H4]
valueReported: 3.44

macromoleculeSequence: AFREFDRDRDGRITVAELREAVPA [CABP4]
valueReported: 4.65

macromoleculeSequence: VRVVFFPLFSNWWIQVTSLRIFVW [PHTF1]
valueReported: 2.79

macromoleculeSequence: PISQEKIESERALISQCGKPVVNV [DUSP5]
valueReported: 4.04

macromoleculeSequence: KDPRQWTETHVRDWVMWAVNEFSL [ETS1]
valueReported: 2.67

macromoleculeSequence: SMDNTPHTPTPFKNALEKYGPLKP [MYBL2]
valueReported: 3.48

macromoleculeSequence: VTDEEIESLMKDGDKNNDGRIDFD [TNNC2]
valueReported: 5.52

macromoleculeSequence: ALQYAGDGSVLLIPRTMADQQARR [NFE2L1]
valueReported: 3.11

macromoleculeSequence: TSAKVNWMPPPSRADSFKVSYQLA [TNXB]
valueReported: 2.5

macromoleculeSequence: WVGFDDVESFKTKVSYLKQKGLGG [CHIT1]
valueReported: 2.36

macromoleculeSequence: DGYGMTPLLSASVTGHTNIVDFLT [FEM1C]
valueReported: 3.01

macromoleculeSequence: RSSHLVIHERTHERERLYPFSECG [ZNF263]
valueReported: 2.93

macromoleculeSequence: LHSLPGVSLSLENRELWKEFSSVG [TBX6]
valueReported: 2.73

macromoleculeSequence: SGEDPTAAAPVAEVPTAAGALTPT [CLPTM1]
valueReported: 5.42

macromoleculeSequence: LPPGFVLKKDKKKEEKEDEISLED [ZC3H15]
valueReported: 5.54

macromoleculeSequence: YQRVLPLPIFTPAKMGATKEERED [TCAP]
valueReported: 3.01

macromoleculeSequence: YQLELQCCIDWTHVTDPLIGCKKP [SMG5]
valueReported: 2.38

macromoleculeSequence: DDAVRVLREIVHKPGPITLTVAKC [DVL3]
valueReported: 2.87

macromoleculeSequence: PSPASEQTVTVEEAAGGESALAPS [MAP2]
valueReported: 5.45

macromoleculeSequence: KGFIQKGNLNIHQRTHTGEKPYGC [ZNF649]
valueReported: 3.67

macromoleculeSequence: TQRLWDFTQSGPIVSRATGRCLEV [GALNT9]
valueReported: 2.81

macromoleculeSequence: IMNDLSNRVWSISQEPDPVQRLQA [TRIM14]
valueReported: 3.16
